- System: BT-549 breast
- experiment: NCI-60 one-dose screen, 48 h (100 = growth as untreated, 0 = no growth, -100 = all killed)
- condition.set: 10 µM unless noted
This is part of a sample that, as a whole, favours compounds with a hit. Of some 83,000 tested, about 20% had one in any assay. Active and inactive are the calls of the source. The calls were made as follows: active = growth percent below 10; inactive = the rest.
measurement.kind: growth

The following molecules have reported results that may help.
COC(=O)c1nc(N)nc(C(=O)OC)c1C(=O)c1cccc2ccccc12 ... 133% (inactive)
COc1ccccc1OCC(O)CO (configuration not stated) ... 107% (inactive)
C/C(=C\c1ccccc1)C(O)C(=O)c1nc2ccc([N+](=O)[O-])cc2[nH]c1=O (configuration not stated) ... 78.9% (inactive)
CCOC(=O)c1ccc(N2C(=O)C(Cl)(c3ccccc3)C2c2ccco2)cc1 (configuration not stated) ... 76.5% (inactive)
CCCCCCCCCCCCCCCCC(=O)O ... 112% (inactive)

Input: // Input: CCc1ccc(OC(=O)CCl)cc1 . Output its growth only.
Output: 109% (inactive)

Input: // Input: N#Cc1c[nH]n2ccnc12 . Output its growth only.
Output: 98.3% (inactive)

Input: // Input: Cc1ccc([N+](=O)[O-])cc1Br . Output its growth only.
Output: 110% (inactive)

Input: // Input: Nc1c(Cl)cc2c(c1Br)C(=O)c1ccccc1C2=O . Output its growth only.
Output: 114% (inactive)

Input: // Input: CCCC(=O)OCC(COC(=O)CCC)OC(=O)CCC . Output its growth only.
Output: 106% (inactive)

Input: // Input: CCCCC/C(C)=N\NC(N)=S . Output its growth only.
Output: 96.7% (inactive)

Input: // Input: O=C1c2cccnc2-c2ncccc21 . Output its growth only.
Output: 104% [100 µM] (inactive)
